- TEST SYSTEM: Sodium-dependent serotonin transporter (Rattus norvegicus, UniProt P31652)
- Sequence (P31652 whole entry): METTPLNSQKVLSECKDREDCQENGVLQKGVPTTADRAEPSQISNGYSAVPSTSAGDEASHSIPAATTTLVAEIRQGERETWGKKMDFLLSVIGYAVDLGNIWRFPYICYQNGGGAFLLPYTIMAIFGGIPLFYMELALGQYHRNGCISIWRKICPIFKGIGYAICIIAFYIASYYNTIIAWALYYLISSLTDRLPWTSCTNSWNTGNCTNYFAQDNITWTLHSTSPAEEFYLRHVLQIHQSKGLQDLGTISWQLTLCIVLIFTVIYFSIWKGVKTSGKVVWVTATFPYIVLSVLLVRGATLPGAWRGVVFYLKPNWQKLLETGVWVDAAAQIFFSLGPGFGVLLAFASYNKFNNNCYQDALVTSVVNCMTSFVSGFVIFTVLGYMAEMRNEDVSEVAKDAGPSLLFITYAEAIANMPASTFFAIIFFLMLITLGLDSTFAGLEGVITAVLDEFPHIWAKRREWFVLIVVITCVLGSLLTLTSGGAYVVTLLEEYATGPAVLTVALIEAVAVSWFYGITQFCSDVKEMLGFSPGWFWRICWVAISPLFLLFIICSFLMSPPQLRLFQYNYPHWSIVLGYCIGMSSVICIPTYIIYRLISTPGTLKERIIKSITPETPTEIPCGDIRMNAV
- METHOD: Inhibition of 5-HT uptake in rat synaptosomal fraction
Classification field. Basis: IC50. Definitions: low = under 0.7 nM, moderate = from 0.7 nM up to 5 nM, high = 5 nM and over

> print(dat)
                                    compound       cat
 1  CNC1CC(c2ccc(F)c(F)c2)c2ccccc21.Cl (stereo in doubt; 68)  moderate
 2  CNC1CC(c2ccc(Br)cc2)c2ccccc21.Cl (stereo in doubt; 64)       low
 3  CCNC1CC(c2ccc(Cl)c(Cl)c2)c2ccccc21.Cl (stereo in doubt; 83)  moderate
 4  CCNC1CC(c2ccc(Cl)c(Cl)c2)c2ccccc21.Cl (stereo in doubt; 84)  moderate
 5  CN(C)C1CC(c2ccccc2)c2ccccc21.Cl (stereo in doubt; 31)      high
 6  CNC1CC(c2ccc(Cl)c(Cl)c2)c2ccc(O)cc21 (stereo in doubt; 80)       low
 7  CNC1CC(c2ccc(Cl)c(C(F)(F)F)c2)c2ccccc21 (stereo not given)  moderate
 8  CNC1CC(c2ccc(Cl)c(Cl)c2)c2ccc(OC)cc21.Cl (stereo not given)       low
 9  CNC1CC(c2ccc(Cl)c(Cl)c2)c2ccc(O)cc21 (stereo in doubt; 54)  moderate
10  CNC1CC(c2ccc(Cl)c(Cl)c2)c2ccc(F)cc21.Cl (stereo in doubt; 50)  moderate
11  CNC1CC(c2ccc(F)cc2)c2ccccc21.Cl (stereo in doubt; 60)      high
12  CCN(CC)C1CC(c2ccc(Cl)c(Cl)c2)c2ccccc21.Cl (stereo in doubt; 85)  moderate
13  CN(C)C1CC(c2ccc(Cl)cc2)c2ccccc21 (stereo in doubt; 63)       low
14  CNC1CC(c2cccc(Cl)c2)c2ccccc21.Cl (stereo in doubt; 66)      high
15  CN(C)C1CC(c2ccc(Br)cc2)c2ccccc21 (stereo in doubt; 37)       low
16  CNC1CC(c2ccc(Cl)cc2)c2ccccc21.Cl (stereo not given)       low
17  CNC1CC(c2ccc(Cl)c(Cl)c2)c2ccc(OC)cc21 (stereo not given)       low
18  CN(C)C1CC(c2ccc(F)cc2)c2ccccc21.Cl (stereo in doubt; 61)      high
19  CN(C)C1CC(c2ccc(Cl)c(Cl)c2)c2ccc(O)cc21 (stereo not given)       low
20  Clc1ccc(C2CC(N3CCCCC3)c3ccccc32)cc1Cl (stereo in doubt; 100)      high
21  CN(C)C1CC(c2cccc(Cl)c2)c2ccccc21.Cl (stereo in doubt; 67)  moderate
22  CN(C)C1CC(c2cccc(Cl)c2)c2ccccc21.Cl (stereo in doubt; 40)      high
23  CNC1CC(c2ccc(Cl)c(Cl)c2)c2ccc(F)cc21.Cl (stereo in doubt; 76)  moderate
24  CN(C)C1CC(c2ccc(Br)cc2)c2ccccc21 (stereo in doubt; 65)       low
25  CNC1CC(c2ccc(C(F)(F)F)cc2)c2ccccc21 (stereo not given)  moderate
26  COc1ccc2c(c1)C(N(C)C)CC2c1ccc(Cl)c(Cl)c1 (stereo in doubt; 53)  moderate
27  CN(C)C1CC(c2ccc(Cl)cc2Cl)c2ccccc21.Cl (stereo in doubt; 49)       low
28  CNC1CC(c2ccccc2)c2ccccc21 (stereo not given)      high
